Target: human AhR (hAhR) (Homo sapiens)
Sequence (P35869 11-848): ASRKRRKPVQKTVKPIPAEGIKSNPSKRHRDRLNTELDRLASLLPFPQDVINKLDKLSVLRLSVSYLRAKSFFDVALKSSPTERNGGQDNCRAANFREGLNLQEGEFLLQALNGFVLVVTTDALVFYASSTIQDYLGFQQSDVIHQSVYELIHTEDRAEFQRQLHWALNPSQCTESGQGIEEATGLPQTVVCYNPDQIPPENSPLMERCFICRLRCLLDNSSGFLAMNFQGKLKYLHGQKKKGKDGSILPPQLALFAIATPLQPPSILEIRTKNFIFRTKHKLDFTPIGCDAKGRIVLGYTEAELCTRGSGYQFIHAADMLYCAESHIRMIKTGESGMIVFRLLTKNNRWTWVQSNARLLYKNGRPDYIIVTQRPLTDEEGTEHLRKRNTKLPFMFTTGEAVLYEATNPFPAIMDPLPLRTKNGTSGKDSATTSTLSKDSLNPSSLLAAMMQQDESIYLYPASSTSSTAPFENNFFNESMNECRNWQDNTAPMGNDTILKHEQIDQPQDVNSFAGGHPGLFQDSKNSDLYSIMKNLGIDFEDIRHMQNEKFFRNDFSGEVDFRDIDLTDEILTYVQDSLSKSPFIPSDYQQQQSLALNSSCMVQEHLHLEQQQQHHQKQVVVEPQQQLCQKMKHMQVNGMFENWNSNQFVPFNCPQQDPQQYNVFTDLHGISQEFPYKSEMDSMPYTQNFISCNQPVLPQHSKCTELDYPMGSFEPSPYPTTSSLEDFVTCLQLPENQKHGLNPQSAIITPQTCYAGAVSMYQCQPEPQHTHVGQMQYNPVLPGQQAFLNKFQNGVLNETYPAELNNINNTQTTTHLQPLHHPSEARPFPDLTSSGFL
Assay: AhR-dependent pXRE-SV40-Luc luciferase reporter in HepG2 cells
Assay type: cell-based
Metric: EC50 (nM)

{"Molecule": "Clc1cc2c(cc1Cl)Oc1cc(Cl)c(Cl)cc1O2 [TCDD, 2,3,7,8-tetrachlorodibenzo-p-dioxin, reference compound]", "Tested System": "human AhR (hAhR) (Homo sapiens)", "Observed Measurement": 0.4}
